Entry source: PubChem BioAssay (EPA / NIEHS)

tested on: Sodium/Iodide Symporter (NIS), SLC5A5 (gene 6528); test: CPHEA_Stoker_NIS_Inhibition_RAIU: CPHEA's Radioactive Iodide Uptake (RAIU) Assay for Sodium/Iodide Symporter (NIS) Inhibition, Stoker and Laws Labs (AID 2283841)
Records with an inconclusive call do not appear. Calls of active or inactive are those of the source. The calls were made as follows: active = hit-call score of the fitted dose curve at least 0.9, where 1 is the maximum; inconclusive = response in the unintended direction; inactive = score below 0.9.
recordedEndpoint: AC50

                                   compound    readoutvalue
0  CCN(CC)C(=O)c1cc(S(=O)(=O)Cc2ccccc2)c(N2CCC(c3ccccc3)CC2)cc1N(CC)CCN(C)C        inactive
1  NC(=O)c1nc(-c2cccc(-c3cc(F)ccc3OCC(F)(F)C(F)(F)F)c2)n[nH]1  50 µM (active)
2  CC(C)(C)c1cc(/C=C2\SC(N)=NC2=O)cc(C(C)(C)C)c1O        inactive
3  OC12N=C(c3ccccc3)SC1Cc1cc(Cl)ccc12 (centres undefined)        inactive
